- tested-on: Phosphatidylinositol 4,5-bisphosphate 3-kinase catalytic subunit alpha isoform (Homo sapiens, UniProt P42336)
- Sequence (P42336 whole entry, canonical isoform): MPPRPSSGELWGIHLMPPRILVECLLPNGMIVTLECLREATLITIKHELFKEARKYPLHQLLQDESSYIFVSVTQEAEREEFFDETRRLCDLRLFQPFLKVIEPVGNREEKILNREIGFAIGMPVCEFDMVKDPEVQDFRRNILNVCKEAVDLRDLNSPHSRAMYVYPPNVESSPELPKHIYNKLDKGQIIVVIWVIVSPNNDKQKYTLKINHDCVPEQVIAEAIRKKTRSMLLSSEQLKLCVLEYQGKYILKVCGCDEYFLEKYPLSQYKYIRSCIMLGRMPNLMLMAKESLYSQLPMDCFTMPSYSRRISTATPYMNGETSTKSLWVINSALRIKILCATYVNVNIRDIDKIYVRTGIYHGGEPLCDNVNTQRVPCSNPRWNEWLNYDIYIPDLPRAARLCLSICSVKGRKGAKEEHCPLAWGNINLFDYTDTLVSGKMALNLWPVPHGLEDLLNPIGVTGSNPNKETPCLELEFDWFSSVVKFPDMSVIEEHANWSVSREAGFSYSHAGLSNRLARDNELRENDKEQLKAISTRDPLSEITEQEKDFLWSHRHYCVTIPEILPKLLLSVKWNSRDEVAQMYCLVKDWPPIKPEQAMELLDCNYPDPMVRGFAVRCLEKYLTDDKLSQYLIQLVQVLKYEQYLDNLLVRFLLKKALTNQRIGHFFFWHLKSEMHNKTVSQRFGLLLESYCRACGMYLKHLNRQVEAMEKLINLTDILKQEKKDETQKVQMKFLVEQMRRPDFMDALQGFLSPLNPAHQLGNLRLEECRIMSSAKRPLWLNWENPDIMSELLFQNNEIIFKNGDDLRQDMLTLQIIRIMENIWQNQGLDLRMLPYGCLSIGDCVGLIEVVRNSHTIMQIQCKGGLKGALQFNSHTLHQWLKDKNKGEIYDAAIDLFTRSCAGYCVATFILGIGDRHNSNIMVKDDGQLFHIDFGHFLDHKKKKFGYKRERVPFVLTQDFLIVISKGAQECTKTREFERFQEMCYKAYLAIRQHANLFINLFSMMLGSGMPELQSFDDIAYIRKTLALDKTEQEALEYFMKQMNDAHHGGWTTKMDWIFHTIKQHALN
quantity: pIC50
Numbers only, as −log10 of the molar value.

{"columns": ["structure-as-smiles", "result-number"],
 "data": [
  ["c1cc2nc(-c3ccc4cn[nH]c4c3)nc(N3CCOCC3)c2s1", 5.61]
]}

Q) So what's the measured pIC50 for this one? Cc1csc2c(N3CCOCC3)nc(-c3cccc(O)c3)nc12
A) 7.68

---

- assay-remarks: in vitro
- recorded-conditions: human, liver microsomes
- Description: Metabolic stability in human liver microsomes at 10 uM after 30 mins
Lab note: compare remaining at 0.5 h, 10 µM with 70%, writing Fulfilled if less and Not fulfilled if equal or more.

{"columns": ["structure-as-smiles", "discrete-label"],
 "data": [
  ["COCCN(C)Cc1cc2nc(-c3cccc(O)c3)nc(N3CCOCC3)c2s1", "Fulfilled"],
  ["Oc1cccc(-c2nc(N3CCOCC3)c3sccc3n2)c1", "Fulfilled"],
  ["CN(C)Cc1cc2nc(-c3cccc(O)c3)nc(N3CCOCC3)c2s1", "Not fulfilled"],
  ["Cc1csc2c(N3CCOCC3)nc(-c3cccc(O)c3)nc12", "Fulfilled"],
  ["CN1CCN(Cc2cc3nc(-c4cccc5[nH]ncc45)nc(N4CCOCC4)c3s2)CC1", "Not fulfilled"],
  ["OCCN1CCN(Cc2cc3nc(-c4cccc(O)c4)nc(N4CCOCC4)c3s2)CC1", "Not fulfilled"]
]}

Switching to the query record.
Q) A record lists CN1CCN(Cc2cc3nc(-c4cccc(O)c4)nc(N4CCOCC4)c3s2)CC1 . Is its remaining at 0.5 h, 10 µM below 70%?
A) Not fulfilled

---

Would you mind telling me the reported bioavailability of each entry?
- assay-remarks: in vivo
- recorded-conditions: CD1, mouse, po, 10 mg/kg
Numbers only, in %.

Completed entries (count: 3):
{"columns": ["structure-as-smiles", "unit-name", "bioavailability"],
 "data": [
  ["CN1CCN(Cc2cc3nc(-c4cccc(O)c4)nc(N4CCOCC4)c3s2)CC1", "%", 10],
  ["CN1CCN(Cc2cc3nc(-c4cccc5[nH]ncc45)nc(N4CCOCC4)c3s2)CC1", "%", 31],
  ["OCCN1CCN(Cc2cc3nc(-c4cccc(O)c4)nc(N4CCOCC4)c3s2)CC1", "%", 7]
]}

In the following, a different compound is considered.
Q) For the compound shown here, CN(C)Cc1cc2nc(-c3cccc(O)c3)nc(N3CCOCC3)c2s1 , give the reported bioavailability.
A) 11
